assayTarget: MCL-1 (Homo sapiens (Human), UniProt Q07820)
Sequence (Q07820 whole entry): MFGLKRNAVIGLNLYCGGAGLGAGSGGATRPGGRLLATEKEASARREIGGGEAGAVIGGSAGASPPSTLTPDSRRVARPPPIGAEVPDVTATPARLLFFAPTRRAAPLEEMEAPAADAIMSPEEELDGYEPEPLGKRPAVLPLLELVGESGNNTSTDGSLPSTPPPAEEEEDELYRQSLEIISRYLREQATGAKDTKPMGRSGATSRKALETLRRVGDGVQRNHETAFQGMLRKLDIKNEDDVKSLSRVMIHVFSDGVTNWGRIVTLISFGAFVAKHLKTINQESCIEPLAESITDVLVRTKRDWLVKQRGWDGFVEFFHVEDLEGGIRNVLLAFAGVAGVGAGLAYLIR
assayName: Cell free Mcl-1:Bim affinity assay (fluorescence polarization competition)
Assay type: binding
experimentalConditions: 15 nM MCL-1, 5 nM FITC-Bim, 1 hour at room temperature; class symbols; read-out: BIM_Ki
Experimental: The binding affinity of each compound was measured via a fluorescence polarization competition assay, in which the compound competes for the same binding site with the ligand, and thus leads to a dose-dependent anisotropy reduction. The tracer ligand utilized was a fluorescein isothiocyanate labelled peptide (FITC-[…]) derived from Bim (GenScript). […]
pKi: −log10 of the molar value.
Measured pKi of individual entries

# compound, pKi
rows = [
    ("COCCOC[C@@H]1CC/C=C/[C@@H](OC)[C@@H]2CC[C@H]2CN2C[C@@]3(CCCc4cc(Cl)ccc43)COc3ccc(cc32)S(=O)(=O)NC1=O [Example 97]", "> 9.00"),
    ("CO[C@@H]1CCN(C(=O)O[C@H]2/C=C/COC(C)(C)C(=O)NS(=O)(=O)c3ccc4c(c3)N(C[C@@H]3CC[C@H]32)C[C@@]2(CCOc3cc(Cl)ccc32)CO4)C1 [Example 266]", "> 9.00"),
    ("CN(C)C(=O)O[C@H]1/C=C/COC2(CC2)C(=O)NS(=O)(=O)c2ccc3c(c2)N(C[C@@H]2CC[C@H]21)C[C@@]1(CCCc2cc(Cl)ccc21)CO3 [Example 41]", "> 9.00"),
    ("CN(C)CCO[C@H]1/C=C/COC(C)(C)C(=O)NS(=O)(=O)c2ccc3c(c2)N(C[C@@H]2CC[C@H]21)C[C@@]1(CCCc2cc(Cl)ccc21)CO3 [Example 65]", "> 9.00"),
    ("CO[C@@H]1CCN(C(=O)O[C@H]2/C=C/COC(C)(C)C(=O)NS(=O)(=O)c3ccc4c(c3)N(C[C@@H]3CC[C@H]32)C[C@@]2(CCCc3cc(Cl)ccc32)CO4)C1 [Example 58]", "> 9.00"),
    ("CON(C)CCO[C@H]1/C=C/COC(C)(C)C(=O)NS(=O)(=O)c2ccc3c(c2)N(C[C@@H]2CC[C@H]21)C[C@@]1(CCCc2cc(Cl)ccc21)CO3 [Example 267]", "7.00 to 9.00"),
    ("CN(C)C(=O)O[C@H]1/C=C/COC(C)(C)C(=O)NS(=O)(=O)c2ccc3c(c2)N(C[C@@H]2CC[C@H]21)C[C@@]1(CCCc2cc(Cl)ccc21)CO3 [Example 34]", "> 9.00"),
    ("CN(C(=O)O[C@H]1/C=C/CN(C)C(C)(C)C(=O)NS(=O)(=O)c2ccc3c(c2)N(C[C@@H]2CC[C@H]21)C[C@@]1(CCCc2cc(Cl)ccc21)CO3)[C@H]1CCOC1 [Example 226]", "> 9.00"),
    ("CO[C@@H]1/C=C/CC[C@@H](CO)C(=O)NS(=O)(=O)c2ccc3c(c2)N(C[C@@H]2CC[C@H]21)C[C@@]1(CCCc2cc(Cl)ccc21)CO3 [Example 95]", "7.00 to 9.00"),
    ("CN(C)C(=O)N(C)[C@H]1/C=C/COC(C)(C)C(=O)NS(=O)(=O)c2ccc3c(c2)N(C[C@@H]2CC[C@H]21)C[C@@]1(CCCc2cc(Cl)ccc21)CO3 [Example 257]", "7.00 to 9.00"),
    ("CN(C(=O)O[C@H]1/C=C/COC(C)(C)C(=O)NS(=O)(=O)c2ccc3c(c2)N(C[C@@H]2CC[C@H]21)C[C@@]1(CCOc2cc(Cl)ccc21)CO3)C1CCOCC1 [Example 304]", "> 9.00"),
]
